- system-under-test: Phosphatidylinositol 4,5-bisphosphate 3-kinase catalytic subunit gamma isoform (Homo sapiens)
- Sequence (P48736 whole entry, canonical isoform): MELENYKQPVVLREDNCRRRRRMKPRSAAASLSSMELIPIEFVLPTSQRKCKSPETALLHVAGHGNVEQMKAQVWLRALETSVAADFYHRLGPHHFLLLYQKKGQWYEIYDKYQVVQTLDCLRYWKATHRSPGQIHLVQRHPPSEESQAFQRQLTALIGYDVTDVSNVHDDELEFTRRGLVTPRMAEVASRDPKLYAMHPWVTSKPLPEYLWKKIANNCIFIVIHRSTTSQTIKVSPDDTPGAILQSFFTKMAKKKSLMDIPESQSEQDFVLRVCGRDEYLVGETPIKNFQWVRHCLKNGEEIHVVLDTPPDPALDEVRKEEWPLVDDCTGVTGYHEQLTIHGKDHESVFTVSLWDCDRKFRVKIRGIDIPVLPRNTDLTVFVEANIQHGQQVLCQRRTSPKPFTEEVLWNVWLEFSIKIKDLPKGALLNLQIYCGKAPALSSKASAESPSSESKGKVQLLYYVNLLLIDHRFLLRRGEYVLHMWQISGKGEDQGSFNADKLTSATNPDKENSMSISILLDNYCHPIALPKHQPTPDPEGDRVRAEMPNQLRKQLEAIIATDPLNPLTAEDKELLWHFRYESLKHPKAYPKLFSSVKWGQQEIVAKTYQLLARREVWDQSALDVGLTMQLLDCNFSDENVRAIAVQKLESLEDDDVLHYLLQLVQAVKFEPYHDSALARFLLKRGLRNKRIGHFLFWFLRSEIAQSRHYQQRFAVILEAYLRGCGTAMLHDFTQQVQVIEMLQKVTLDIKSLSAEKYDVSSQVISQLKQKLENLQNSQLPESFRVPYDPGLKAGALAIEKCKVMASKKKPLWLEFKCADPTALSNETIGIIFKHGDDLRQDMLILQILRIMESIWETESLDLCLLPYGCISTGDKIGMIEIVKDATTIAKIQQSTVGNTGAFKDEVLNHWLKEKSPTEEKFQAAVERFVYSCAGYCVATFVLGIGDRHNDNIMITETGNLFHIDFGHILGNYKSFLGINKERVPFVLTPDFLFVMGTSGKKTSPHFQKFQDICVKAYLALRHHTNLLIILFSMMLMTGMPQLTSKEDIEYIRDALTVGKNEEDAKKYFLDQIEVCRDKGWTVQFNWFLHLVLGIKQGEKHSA
- assay-notes: Inhibition of PI3K-gamma (unknown origin) after 40 mins by Kinase-Glo assay

| smiles-notation | EC50 (µM) |
| --- | --- |
| Fc1ccccc1-c1cc2nc(-c3ccco3)c(-c3ccco3)nc2cc1Br | 9.89 |

----------
- system-under-test: Phosphatidylinositol 4,5-bisphosphate 3-kinase catalytic subunit beta isoform (Homo sapiens)
- Sequence (P42338 whole entry, canonical isoform): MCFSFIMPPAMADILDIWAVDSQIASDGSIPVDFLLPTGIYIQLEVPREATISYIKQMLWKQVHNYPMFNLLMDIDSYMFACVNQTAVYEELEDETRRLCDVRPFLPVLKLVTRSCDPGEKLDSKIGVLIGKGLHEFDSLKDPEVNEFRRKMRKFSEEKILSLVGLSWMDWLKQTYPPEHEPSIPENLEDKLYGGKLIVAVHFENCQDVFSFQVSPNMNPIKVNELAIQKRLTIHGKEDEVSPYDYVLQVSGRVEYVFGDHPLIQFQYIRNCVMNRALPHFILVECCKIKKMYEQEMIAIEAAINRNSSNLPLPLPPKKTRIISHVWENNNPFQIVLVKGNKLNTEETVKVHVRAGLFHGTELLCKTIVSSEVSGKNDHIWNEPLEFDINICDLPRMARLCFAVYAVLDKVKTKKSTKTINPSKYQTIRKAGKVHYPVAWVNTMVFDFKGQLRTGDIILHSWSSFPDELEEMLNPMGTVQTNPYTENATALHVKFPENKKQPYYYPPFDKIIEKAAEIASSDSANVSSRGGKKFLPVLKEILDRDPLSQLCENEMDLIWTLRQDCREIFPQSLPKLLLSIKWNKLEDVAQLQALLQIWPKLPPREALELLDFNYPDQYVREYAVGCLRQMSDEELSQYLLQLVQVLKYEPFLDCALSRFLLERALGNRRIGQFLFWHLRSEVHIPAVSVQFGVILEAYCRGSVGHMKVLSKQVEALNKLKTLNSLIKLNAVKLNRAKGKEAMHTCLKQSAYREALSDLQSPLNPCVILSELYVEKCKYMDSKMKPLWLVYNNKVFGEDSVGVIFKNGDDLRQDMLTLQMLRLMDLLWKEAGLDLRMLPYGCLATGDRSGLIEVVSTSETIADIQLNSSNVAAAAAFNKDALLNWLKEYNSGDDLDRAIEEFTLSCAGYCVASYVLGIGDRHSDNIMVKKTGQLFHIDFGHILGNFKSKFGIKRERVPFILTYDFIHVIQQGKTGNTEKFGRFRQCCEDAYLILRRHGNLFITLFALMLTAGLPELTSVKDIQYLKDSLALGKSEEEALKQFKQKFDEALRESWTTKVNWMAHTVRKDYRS
- assay-notes: Inhibition of PI3K-beta (unknown origin) after 40 mins by Kinase-Glo assay
pEC50: −log10 of the molar value.
recorded-endpoint: pEC50

| smiles-notation | recorded-endpoint | value-reported |
| --- | --- | --- |
| Fc1ccccc1-c1cc2nc(-c3ccco3)c(-c3ccco3)nc2cc1Br | pEC50 | 5.48 |

----------
Each item that follows carries a reported log10 of EC50.
- system-under-test: PI3-kinase p110-alpha/p85-alpha (Homo sapiens, UniProt P42336, H1047R)
- Sequence (P42336 whole entry H1047R, looked up): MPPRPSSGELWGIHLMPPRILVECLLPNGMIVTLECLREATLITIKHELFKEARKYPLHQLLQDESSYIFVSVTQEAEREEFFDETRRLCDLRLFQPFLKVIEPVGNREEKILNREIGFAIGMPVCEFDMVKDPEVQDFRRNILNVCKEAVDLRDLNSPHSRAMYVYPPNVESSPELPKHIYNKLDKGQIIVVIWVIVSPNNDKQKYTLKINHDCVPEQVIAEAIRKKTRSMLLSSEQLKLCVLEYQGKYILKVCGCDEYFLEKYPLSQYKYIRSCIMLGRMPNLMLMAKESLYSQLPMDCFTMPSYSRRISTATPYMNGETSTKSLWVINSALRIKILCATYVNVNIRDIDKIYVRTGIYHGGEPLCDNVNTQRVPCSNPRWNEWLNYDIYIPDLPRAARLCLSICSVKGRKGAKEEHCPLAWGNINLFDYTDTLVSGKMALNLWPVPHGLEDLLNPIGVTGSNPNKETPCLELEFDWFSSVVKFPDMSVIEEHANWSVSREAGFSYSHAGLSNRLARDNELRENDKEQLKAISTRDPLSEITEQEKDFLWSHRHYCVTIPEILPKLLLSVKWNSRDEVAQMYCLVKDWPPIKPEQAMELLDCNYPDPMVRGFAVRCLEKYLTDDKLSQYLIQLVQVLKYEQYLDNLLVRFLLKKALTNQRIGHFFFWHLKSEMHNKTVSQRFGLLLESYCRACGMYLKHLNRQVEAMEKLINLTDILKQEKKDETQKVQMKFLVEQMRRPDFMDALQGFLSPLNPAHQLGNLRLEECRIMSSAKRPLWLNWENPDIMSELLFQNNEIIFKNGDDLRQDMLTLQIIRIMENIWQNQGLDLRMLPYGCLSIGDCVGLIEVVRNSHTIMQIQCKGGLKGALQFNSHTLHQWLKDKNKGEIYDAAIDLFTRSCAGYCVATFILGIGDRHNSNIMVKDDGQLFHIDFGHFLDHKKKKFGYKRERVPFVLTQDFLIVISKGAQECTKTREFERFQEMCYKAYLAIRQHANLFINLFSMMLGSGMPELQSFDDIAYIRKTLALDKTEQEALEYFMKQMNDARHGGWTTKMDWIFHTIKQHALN
- assay-notes: Inhibition of recombinant full length PI3K p85alpha/p110alpha H1047R mutant (unknown origin) expressed in baculovirus infected sf9 cells using PIP2 as substrate preincubated for 10 mins followed by ATP addition and measured after 45 mins by HTRF assay
recorded-endpoint: log10 of EC50 (log10 of the value in µM)

| smiles-notation | log10 of EC50 |
| --- | --- |
| Brc1cc2nc(-c3ccco3)c(-c3ccco3)nc2cc1-c1cncnc1 | 1.13 |
| Brc1cc2nc(-c3ccco3)c(-c3ccco3)nc2cc1-c1ccncc1 | 1.03 |
| FC(F)(F)c1ccc(-c2cc3nc(-c4ccco4)c(-c4ccco4)nc3cc2Br)cc1 | -0.29 |
| c1ccc(-c2ccc3nc(-c4ccco4)c(-c4ccco4)nc3c2)cc1 | 1.68 |
| Brc1ccc2nc(-c3ccco3)c(-c3ccco3)nc2c1 | 1.53 |
| COc1ccccc1-c1ccc2nc(-c3ccco3)c(-c3ccco3)nc2c1 | 1.94 |
| Fc1ccc(-c2cc3nc(-c4ccco4)c(-c4ccco4)nc3cc2Br)c(F)c1 | 0.51 |
| Fc1ccccc1-c1cc2nc(-c3ccco3)c(-c3ccco3)nc2cc1Br | -0.86 |
| Fc1cccc(-c2cc3nc(-c4ccco4)c(-c4ccco4)nc3cc2Br)c1F | 0.86 |
| Brc1cc2nc(-c3ccco3)c(-c3ccco3)nc2cc1Br | 1.59 |
| Clc1cc(Cl)c2nc(-c3ccco3)c(-c3ccco3)nc2c1 | 1.88 |
| Brc1cc2nc(-c3ccco3)c(-c3ccco3)nc2cc1-c1cc2ccccc2s1 | 0.08 |
| CC(C)(C)OC(=O)n1cccc1-c1cc2nc(-c3ccco3)c(-c3ccco3)nc2cc1Br | 1.27 |

----------
Each item that follows carries a reported pEC50.
- system-under-test: PI3-kinase p110-alpha/p85-alpha (Homo sapiens, UniProt P42336)
- Sequence (P27986 whole entry): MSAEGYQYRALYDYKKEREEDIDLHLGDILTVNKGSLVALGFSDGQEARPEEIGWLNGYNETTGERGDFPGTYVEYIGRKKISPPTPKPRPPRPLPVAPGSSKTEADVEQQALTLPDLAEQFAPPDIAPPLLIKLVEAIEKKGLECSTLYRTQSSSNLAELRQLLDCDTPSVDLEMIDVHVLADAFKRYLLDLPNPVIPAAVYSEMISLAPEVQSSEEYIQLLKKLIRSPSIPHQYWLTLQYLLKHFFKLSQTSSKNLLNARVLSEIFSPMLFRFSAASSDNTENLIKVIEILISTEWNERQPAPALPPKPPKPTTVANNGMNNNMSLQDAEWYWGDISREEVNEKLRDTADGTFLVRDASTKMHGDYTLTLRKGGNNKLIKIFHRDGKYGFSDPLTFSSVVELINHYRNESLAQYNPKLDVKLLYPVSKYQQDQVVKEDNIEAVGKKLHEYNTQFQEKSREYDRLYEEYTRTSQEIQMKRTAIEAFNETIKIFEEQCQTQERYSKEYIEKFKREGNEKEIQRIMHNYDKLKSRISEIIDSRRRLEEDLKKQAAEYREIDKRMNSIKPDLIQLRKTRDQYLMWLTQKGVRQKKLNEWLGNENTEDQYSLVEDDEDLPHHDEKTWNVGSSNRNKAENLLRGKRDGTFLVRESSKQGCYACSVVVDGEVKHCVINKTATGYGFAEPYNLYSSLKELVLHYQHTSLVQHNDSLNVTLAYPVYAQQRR
- Sequence (P42336 whole entry): as the sequence (P42336 whole entry H1047R, looked up) above, with R1047H counted along it
- assay-notes: Inhibition of recombinant full length PI3K p110alpha/p85alpha (unknown origin) expressed in baculovirus infected sf9 cells using PIP2 as substrate preincubated for 10 mins followed by ATP addition and measured after 45 mins by HTRF assay
pEC50: −log10 of the molar value.

| smiles-notation | pEC50 |
| --- | --- |
| FC(F)(F)c1ccccc1-c1cc2nc(-c3ccco3)c(-c3ccco3)nc2cc1Br | 7.01 |
| FC(F)(F)c1ccccc1-c1ccc2nc(-c3ccco3)c(-c3ccco3)nc2c1 | 4.89 |
| c1ccc(-c2ccc3nc(-c4ccco4)c(-c4ccco4)nc3c2)cc1 | 4.91 |
| Brc1ccc2nc(-c3ccco3)c(-c3ccco3)nc2c1 | 4.56 |
| Clc1cc(Cl)c2nc(-c3ccco3)c(-c3ccco3)nc2c1 | 4.26 |
| Fc1ccccc1-c1cc2nc(-c3ccco3)c(-c3ccco3)nc2cc1Br | 7.03 |

----------
- system-under-test: PI3-kinase p110-alpha/p85-alpha (Homo sapiens, UniProt P42336, H1047R)
- assay-notes: Inhibition of recombinant full length PI3K p85alpha/p110alpha H1047R mutant (unknown origin) expressed in baculovirus infected sf9 cells using PIP2 as substrate preincubated for 10 mins followed by ATP addition and measured after 45 mins by HTRF assay
recorded-endpoint: EC50 (µM)

| smiles-notation | bound-type | value-reported |
| --- | --- | --- |
| Brc1ccccc1-c1cc2nc(-c3ccco3)c(-c3ccco3)nc2cc1Br | > | 100 |
| FC(F)(F)c1ccccc1-c1ccc2nc(-c3ccco3)c(-c3ccco3)nc2c1 | = | 11.8 |
| Cc1ccc2nc(-c3ccco3)c(-c3ccco3)nc2c1 | > | 100 |
| FC(F)(F)c1ccccc1-c1cc2nc(-c3ccco3)c(-c3ccco3)nc2cc1Br | = | 0.169 |
| Clc1ccc2nc(-c3ccco3)c(-c3ccco3)nc2c1Cl | > | 100 |
| Oc1ccccc1-c1ccc2nc(-c3ccco3)c(-c3ccco3)nc2c1 | = | 43.5 |
| Oc1ccccc1-c1cc2nc(-c3ccco3)c(-c3ccco3)nc2cc1Br | > | 100 |
| Clc1ccc2nc(-c3ccco3)c(-c3ccco3)nc2c1 | = | 18.1 |
| c1coc(-c2nc3ccc(-c4ccncc4)cc3nc2-c2ccco2)c1 | > | 100 |
| c1coc(-c2nc3ccc(-c4cc5ccccc5o4)cc3nc2-c2ccco2)c1 | > | 100 |
| Fc1ccc(-c2cc3nc(-c4ccco4)c(-c4ccco4)nc3cc2Br)cc1 | = | 1.9 |
| Fc1ccccc1-c1ccc2nc(-c3ccco3)c(-c3ccco3)nc2c1 | = | 12.7 |
| Brc1cc2nc(-c3ccco3)c(-c3ccco3)nc2cc1-c1ccccc1 | = | 20.5 |
| Fc1cccc(-c2cc3nc(-c4ccco4)c(-c4ccco4)nc3cc2Br)c1 | = | 2.9 |
| Fc1ccc2nc(-c3ccco3)c(-c3ccco3)nc2c1 | > | 100 |
| COc1ccc(-c2cc3nc(-c4ccco4)c(-c4ccco4)nc3cc2Br)cc1 | > | 100 |
